In this section we review reported IC50 values for a set of compounds.
- assayed-system: H. sapiens SLC2A9 variant 2 (GLUT9B) (Homo sapiens)
- Sequence (Q9NRM0 1-511 isoform Q9NRM0-2): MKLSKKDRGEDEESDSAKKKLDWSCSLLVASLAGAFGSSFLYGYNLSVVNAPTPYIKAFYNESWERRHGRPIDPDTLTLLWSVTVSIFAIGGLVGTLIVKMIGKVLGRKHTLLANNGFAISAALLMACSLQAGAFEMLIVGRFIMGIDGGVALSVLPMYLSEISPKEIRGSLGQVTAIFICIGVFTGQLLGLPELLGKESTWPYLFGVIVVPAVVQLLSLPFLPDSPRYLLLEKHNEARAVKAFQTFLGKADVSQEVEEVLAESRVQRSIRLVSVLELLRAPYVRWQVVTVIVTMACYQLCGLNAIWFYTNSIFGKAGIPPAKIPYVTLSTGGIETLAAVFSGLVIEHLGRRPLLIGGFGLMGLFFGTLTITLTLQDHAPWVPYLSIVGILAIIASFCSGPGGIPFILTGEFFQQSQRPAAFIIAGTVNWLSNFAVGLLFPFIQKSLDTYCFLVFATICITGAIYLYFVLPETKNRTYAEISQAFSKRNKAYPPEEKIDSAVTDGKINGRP
- protocol-notes: GLUT9 functional assay: uric acid uptake in HEK293T cells, allantoin formation by MS/MS as proxy of GLUT9B inhibition
- Format: cell-based
- condition-description: 60 minute assay; HEK293T cells stably expressing GLUT9B and transiently A. oryzae uricase; uric acid 0.3 mM, 37° C.; read-out: 60 min IC50

{"compound": "COCCCc1cnc(-c2ccc3cncn3c2)c(N2CCC(C(=O)O)CC2)n1 [Compound 207]", "endpoint-label": "IC50", "recorded-result": "> 2000 nM"}
{"compound": "COCCCc1cnc(-c2cnn3c2CCCC3)c(N2CCC(C(=O)O)CC2)n1 [Compound 206]", "endpoint-label": "IC50", "recorded-result": "> 2000 nM"}
{"compound": "COCCCc1cnc(-c2cnc3c(cnn3C)c2)c(N2CCC(C(=O)O)CC2)n1 [Compound 217]", "endpoint-label": "IC50", "recorded-result": "> 2000 nM"}
{"compound": "COCCCc1cnc(-c2ccnc3cc(OC)ccc23)c(N2CCC(C(=O)O)CC2)n1 [Compound 221]", "endpoint-label": "IC50", "recorded-result": "> 2000 nM"}
{"compound": "COCCCc1cnc(-c2ccnc3[nH]ccc23)c(N2CCC(C(=O)O)CC2)n1 [Compound 194]", "endpoint-label": "IC50", "recorded-result": "> 2000 nM"}
{"compound": "COCCCc1cnc(-c2cnc3c(c2)NCCO3)c(N2CCC(C(=O)O)CC2)n1 [Compound 216]", "endpoint-label": "IC50", "recorded-result": "> 2000 nM"}
{"compound": "COCCCc1cnc(-c2cc(F)c3occc3c2)c(N2CCCC(C(=O)O)CC2)n1 (centres unmarked) [Compound 243]", "endpoint-label": "IC50", "recorded-result": "< 500 nM"}

Switching to the query record.
Q: Entry O=C(O)C1CCN(c2nc(CCCC(F)F)cnc2-c2ccc3occc3c2)CC1 [Compound 142] : reported IC50 = ?
Result: < 500 nM

###

- assayed-system: H. sapiens SLC2A9 variant 2 (GLUT9B) (Homo sapiens, UniProt Q9NRM0)
- Sequence (Q9NRM0 1-511 isoform Q9NRM0-2): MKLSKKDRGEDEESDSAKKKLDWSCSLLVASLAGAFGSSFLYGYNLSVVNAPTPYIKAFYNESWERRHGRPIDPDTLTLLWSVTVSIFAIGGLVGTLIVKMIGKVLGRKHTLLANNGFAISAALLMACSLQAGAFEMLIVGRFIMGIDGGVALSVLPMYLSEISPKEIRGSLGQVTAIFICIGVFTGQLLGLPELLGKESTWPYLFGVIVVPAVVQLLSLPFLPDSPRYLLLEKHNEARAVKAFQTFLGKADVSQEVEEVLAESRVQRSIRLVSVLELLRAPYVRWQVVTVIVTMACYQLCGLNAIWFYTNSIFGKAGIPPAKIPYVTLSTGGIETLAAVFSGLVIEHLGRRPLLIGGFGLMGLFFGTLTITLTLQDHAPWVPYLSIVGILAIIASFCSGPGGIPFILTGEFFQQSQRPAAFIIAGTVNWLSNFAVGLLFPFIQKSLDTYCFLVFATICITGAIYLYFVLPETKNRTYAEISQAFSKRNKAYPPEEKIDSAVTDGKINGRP
- protocol-notes: GLUT9 functional assay: uric acid uptake in HEK293T cells, allantoin formation by MS/MS as proxy of GLUT9B inhibition
- Assay type: cell-based
- condition-description: 15 minute assay; HEK293T cells stably expressing GLUT9B and transiently A. oryzae uricase; uric acid 0.3 mM, 37° C.; read-out: 15 min IC50
The compounds listed here are annotated with their IC50.

Consider the reported IC50 for these compounds:
{"mol": "CCCCc1nc(-c2ccc(OC)cc2)c(N2CCC(C(=O)O)CC2)o1", "assayed-system": "H. sapiens SLC2A9 variant 2 (GLUT9B) (Homo sapiens, UniProt Q9NRM0)", "IC50": "500 to 2000 nM"}
{"mol": "O=C(O)C1CCN(c2nc(CCCOCC(F)(F)F)cnc2-c2ccc3occc3c2)CC1", "assayed-system": "H. sapiens SLC2A9 variant 2 (GLUT9B) (Homo sapiens, UniProt Q9NRM0)", "IC50": "< 500 nM"}
{"mol": "O=C(O)C1CCN(c2nc(COCC(F)(F)F)cnc2-c2ccc(OCC3CC3)c(F)c2)CC1", "assayed-system": "H. sapiens SLC2A9 variant 2 (GLUT9B) (Homo sapiens, UniProt Q9NRM0)", "IC50": "> 2000 nM"}

Now, please, on to the next compound.
Q: Fill blank: measured IC50 of the compound CCCCc1cnc(-c2ccc(OC)cc2)c(-c2ccc3c(C(=O)O)c[nH]c3c2)c1 is ____.
Result: < 500 nM
